Entries annotated with measured pIC50
# ASSAY_TARGET: T1, HLA-B62 (B*1501) (human)
# T1 construct: HLA class I on acid-stripped EBV-transformed B cells (B-LCL)
# TEST_PROTOCOL: competition vs YLGEFSC(FI)TY on stripped B-LCL, FACS
pIC50 (log units): -log10 of the concentration in mol/L.

A selection of reference data follows.
GQHLHLETF [PRAME 89-97 GQHLHLETF] :: 5.62
LQHLIGLSNL [PRAME 427-436 LQHLIGLSNL] :: 5.62

Please turn your attention to the following entry.
Per the record, LLRHVMNPL [PRAME 316-324 LLRHVMNPL] has pIC50 of 5.59
